Experiment: Exposure after chow dosing in mice
Conditions: mouse, in vivo, oral; ApoE knockout mice, chow diet supplemented at 3.3 mg/g chow
recorded metric: Cmax

Task: Query: Cmax; subject: O=C(O)c1ccc(CCCc2c(CCNS(=O)(=O)Cc3ccc(Cl)c(Cl)c3)n(C(c3ccccc3)c3ccccc3)c3ccc(Cl)cc23)cc1 [Example 44]
Output: ~500 ng/mL
